Reported values of GI50 for individual entries
System: MDA-MB-435
assayNotes: NCI tumour cell line growth inhibition, 48 h
Calls of active or inactive are those of the source. Rule as the data show it: active = GI50 up to about 1.1 µM and inactive = higher.
attributeMeasured: GI50

| molecule | experimentalValue |
| --- | --- |
| O=[N+]([O-])c1ccc2nnnn2c1 | 11.5 µM (inactive) |
| CCCCSCc1nc2nc(Cl)c(Cl)nc2[nH]1 | 33.5 µM (inactive) |
| CC1=C(C(=O)OC(C)C)C(c2cccc([N+](=O)[O-])c2)C(C(=O)OC(CO[N+](=O)[O-])CO[N+](=O)[O-])=C(C)N1 (stereo unspecified) | 3.15 µM (inactive) |
| Cc1ccc(/N=N/c2c(C)nn(C(=O)CC(=O)Nc3ccccc3)c2C)cc1C | > 100 µM (inactive) |
| COc1ccc(CC2C(=O)NC(C)C(=O)N(C)C3C(=O)N(C)C(Cc4ccc(O)c(c4)Oc4ccc(cc4)C3O)C(=O)NC(C)C(=O)NC(C)C(=O)N2C)cc1 (stereo unspecified) | < 0.01 µM (active) |
| CC(C)[Si](OC1=C(C(=O)N(C)c2cccc(Cl)c2)CCCC1)(C(C)C)C(C)C | 15.5 µM (inactive) |
| COc1cc(C(=O)C2C(=O)c3ccccc3C2C2(O)c3ccccc3CC2C(O)c2cc(OC)c(OC)c(OC)c2)cc(OC)c1OC (stereo unspecified) | > 100 µM (inactive) |
| CC1=NOC2(C1)/C(=N/O)CCC/C2=N\O (stereo unspecified) | > 100 µM (inactive) |
| O=C1/C(=C/c2ccco2)N=C2Sc3c([nH]cnc3=O)N12 | > 100 µM (inactive) |
| NC(=O)c1c[se]c(C2OC(CO)C(O)C2O)n1 (stereo unspecified) | 7.29 µM (inactive) |
| Cn1cnc(N2CCCC2)c(C#N)c1=S | > 100 µM (inactive) |
